Reported EC50 (ug/ml) HIV-2 by item:
# Test system: HIV-2 (ROD)
# Assay explanation: Inhibition of HIV-2 syncytium formation in CEM cells
# Format: cell-based
# Measurement parameters: CEM cells, syncytium formation, day four post infection

Record excerpt, results attached:
Recorded EC50 (ug/ml) HIV-2 (compound Cc1ccc(C)c(CS(=O)(=O)c2cccc(C)[n+]2[O-])c1 ): >100.0 µg/mL

Recorded EC50 (ug/ml) HIV-2 (compound COc1ccc(CSc2cc(CC(C)C)cc[n+]2[O-])cc1 ): >100.0 µg/mL

Next:
Recorded EC50 (ug/ml) HIV-2 (compound Cc1ccc(C)c(C(Cl)S(=O)(=O)c2cccc(C)[n+]2[O-])c1 (stereo not drawn) ): >100.0 µg/mL

----------
# System: HIV-2 (ROD)
# Assay explanation: Inhibition of HIV-2 syncytium formation in CEM cells
# Type: cell-based
# Measurement parameters: CEM cells, syncytium formation, day four post infection
Attribute measured: EC50 (ug/ml) HIV-2

Record excerpt, results attached:
The measured EC50 (ug/ml) HIV-2 that Cc1cc(CS(=O)(=O)c2cccc[n+]2[O-])c(C)cc1CS(=O)(=O)c1cccc[n+]1[O-] showed for HIV-2 (ROD) is ≧20 ug/ml

The measured EC50 (ug/ml) HIV-2 that Cc1ccc(C)c(C[S+]([O-])c2cccc[n+]2[O-])c1 (stereo not drawn) showed for HIV-2 (ROD) is ≧20 ug/ml

The measured EC50 (ug/ml) HIV-2 that Cc1ccc(C)c(C[S+]([O-])c2c(C)ccc[n+]2[O-])c1 (stereo not drawn) showed for HIV-2 (ROD) is ≧20 ug/ml

The measured EC50 (ug/ml) HIV-2 that Cc1ccccc1CS(=O)(=O)c1c(C)ccc[n+]1[O-] showed for HIV-2 (ROD) is ≧20 ug/ml

Next:
The measured EC50 (ug/ml) HIV-2 that Cc1ccc(C)c(CSc2ccccn2)c1.Cl showed for HIV-2 (ROD) is ≧20 ug/ml

----------
# Tested on: Davis strain CMV
# Assay explanation: Reduction of CMV-induced cytopathicity in HEL cells
# Format: cell-based, human cytomegalovirus (HCMV)
# Measurement parameters: HEL cells, virus-induced cytopathicity after seven days
Attribute measured: Antiviral EC50 (ug/ml) Davis strain CMV

Recorded Antiviral EC50 (ug/ml) Davis strain CMV (compound CCOc1ccccc1CS(=O)(=O)c1cccc[n+]1[O-] [Compound 48] ): >20 µg/mL

Recorded Antiviral EC50 (ug/ml) Davis strain CMV (compound Cc1ccc(CS(=O)(=O)c2cccc[n+]2[O-])cc1[N+](=O)[O-] [Compound 67] ): >50 µg/mL

Recorded Antiviral EC50 (ug/ml) Davis strain CMV (compound O=S(=O)(Cc1ccccc1Oc1ccccc1)c1cccc[n+]1[O-] [Compound 56] ): >5 µg/mL

Recorded Antiviral EC50 (ug/ml) Davis strain CMV (compound COc1ccc(OC)c(CS(=O)(=O)c2cccc[n+]2[O-])c1 [Compound 47] ): >50 µg/mL

Further cases:
Recorded Antiviral EC50 (ug/ml) Davis strain CMV (compound Cc1ccccc1CS(=O)(=O)c1c(C)ccc[n+]1[O-] [Compound 82] ): >5 µg/mL

----------
Reported Antiviral EC50 (ug/ml) Davis strain CMV by item:
# Test system: Davis strain CMV
# Assay explanation: Reduction of CMV-induced cytopathicity in HEL cells
# Type: cell-based, human cytomegalovirus (HCMV)
# Measurement parameters: HEL cells, virus-induced cytopathicity after seven days

Record excerpt, results attached:
Recorded Antiviral EC50 (ug/ml) Davis strain CMV (molecule COc1cc(CS(=O)(=O)c2cccc[n+]2[O-])cc(OC)c1OC ): >50 µg/mL

Recorded Antiviral EC50 (ug/ml) Davis strain CMV (molecule Cc1ccc([N+](=O)[O-])c(CS(=O)(=O)c2cccc[n+]2[O-])c1 ): >5 µg/mL

Next:
Recorded Antiviral EC50 (ug/ml) Davis strain CMV (molecule [O-][n+]1ccccc1[S+]([O-])Cc1ccc(F)cc1 (stereo not drawn) ): >50 µg/mL

----------
# Test system: HIV-2 (ROD)
# Assay explanation: Inhibition of HIV-2 syncytium formation in CEM cells
# Format: cell-based
# Measurement parameters: CEM cells, syncytium formation, day four post infection
Attribute measured: EC50 (ug/ml) HIV-2

Record excerpt, results attached:
Recorded EC50 (ug/ml) HIV-2 (molecule COc1cc(C=C(C#N)Sc2cccc[n+]2[O-])cc(OC)c1OC ): >20 µg/mL

Recorded EC50 (ug/ml) HIV-2 (molecule Cc1ccc[n+]([O-])c1S(=O)(=O)Cc1ccccc1Cl ): >4.0 µg/mL

Recorded EC50 (ug/ml) HIV-2 (molecule O=S(=O)(Cc1ccc(CS(=O)(=O)c2cccc[n+]2[O-])cc1)c1cccc[n+]1[O-] ): ≧20 ug/ml

Recorded EC50 (ug/ml) HIV-2 (molecule [O-][n+]1cccc(Cl)c1[S+]([O-])Cc1ccccc1 (stereo not shown) ): >4.0 µg/mL

Recorded EC50 (ug/ml) HIV-2 (molecule CN1CCCCC1CSc1cccc[n+]1[O-] (racemic) ): >100 µg/mL

Further cases:
Recorded EC50 (ug/ml) HIV-2 (molecule [O-][n+]1cccc(Cl)c1SCc1ccccc1 ): >20.00 µg/mL

Recorded EC50 (ug/ml) HIV-2 (molecule COc1cc(CS(=O)(=O)c2cccc[n+]2[O-])cc(OC)c1OC ): ≧20 ug/ml

Recorded EC50 (ug/ml) HIV-2 (molecule Cc1ccc(C(C)S(=O)(=O)c2c(C)ccc[n+]2[O-])c(C)c1 (racemic) ): >100.0 µg/mL

Recorded EC50 (ug/ml) HIV-2 (molecule Cc1ccc[n+]([O-])c1[S+]([O-])Cc1c(Cl)cccc1Cl (stereo not shown) ): >100.0 µg/mL

Recorded EC50 (ug/ml) HIV-2 (molecule Cc1ccc(C)c(CS(=O)(=O)c2cccc(Cl)[n+]2[O-])c1 ): >0.8 µg/mL

----------
Reported EC50 (ug/ml) HIV-2 by item:
# System: HIV-2 (ROD)
# Assay explanation: Inhibition of HIV-2 syncytium formation in CEM cells
# Assay type: cell-based
# Measurement parameters: CEM cells, syncytium formation, day four post infection

Recorded EC50 (ug/ml) HIV-2 (molecule Cc1cccc(CSc2cccc[n+]2C)c1.[Cl-] [Compound 142] ): >4 µg/mL

Recorded EC50 (ug/ml) HIV-2 (molecule O=S(=O)(Cc1cccs1)c1cccc[n+]1[O-] [Compound 8] ): >20 µg/mL

Recorded EC50 (ug/ml) HIV-2 (molecule Cc1ccc[n+]([O-])c1S(=O)(=O)Cc1c(Cl)cccc1Cl [Compound 139] ): >20.00 µg/mL

Recorded EC50 (ug/ml) HIV-2 (molecule Cc1ccc(C)c(C(C)[S+]([O-])c2ccccn2)c1 (stereo not drawn) [Compound 163] ): >100 µg/mL

Recorded EC50 (ug/ml) HIV-2 (molecule N#CC(=Cc1ccccc1)Sc1cccc[n+]1[O-] [Compound 158] ): >4 µg/mL

Recorded EC50 (ug/ml) HIV-2 (molecule COc1ccc(C(c2ccccc2)S(=O)(=O)c2cccc[n+]2[O-])cc1OC (stereo not drawn) [Compound 61] ): >4.0 µg/mL

Recorded EC50 (ug/ml) HIV-2 (molecule COc1ccc(CS(=O)(=O)c2cc(C(C)(C)C)cc[n+]2[O-])cc1 [Compound 135] ): >20.00 µg/mL

----------
# Test system: Davis strain CMV
# Assay explanation: Reduction of CMV-induced cytopathicity in HEL cells
# Assay type: cell-based, human cytomegalovirus (HCMV)
# Measurement parameters: HEL cells, virus-induced cytopathicity after seven days
# Protocol: Confluent HEL cells grown in […] microtiter plates were inoculated with CMV at an input of 100 PFU (plaque forming units) per well. After a one to two hour incubation period, residual virus was removed and the infected cells were further incubated with MEM (Minimal Essential Medium) (supplemented with 2% inactivated Fetal Calf Serum (FCS), […], and 0.3% sodium bicarbonate) containing varying concentrations of the test compounds. […]
Attribute measured: Antiviral EC50 (ug/ml) Davis strain CMV

Record excerpt, results attached:
Recorded Antiviral EC50 (ug/ml) Davis strain CMV (compound [O-][n+]1cc(Cl)ccc1SCc1ccccc1 ): >20 µg/mL

Recorded Antiviral EC50 (ug/ml) Davis strain CMV (compound Cc1ccc(N)cc1C(C)S(=O)(=O)c1cccc[n+]1[O-] (centres unmarked) ): >50 µg/mL

Recorded Antiviral EC50 (ug/ml) Davis strain CMV (compound Cc1ccc(C)c(CSc2ccccn2)c1.Cl ): >50 µg/mL

Further cases:
Recorded Antiviral EC50 (ug/ml) Davis strain CMV (compound Cc1cc([N+](=O)[O-])ccc1CS(=O)(=O)c1c(C)ccc[n+]1[O-] ): >5 µg/mL

Recorded Antiviral EC50 (ug/ml) Davis strain CMV (compound COc1ccc(CS(=O)(=O)c2cccc[n+]2[O-])cc1OC ): >50 µg/mL
